experiment: MRT 0 to t in Sprague-Dawley rat at 100 uM, iv measured up to 24 hrs by IVIS spectrum imaging analysis; type: ADME, organism-based; details: in vivo
READOUT NAME: MRT last at 24 h, 100 µM (min)
State the answer as a number, implicitly in min.

Q: GET /values?readout=MRT last at 24 h, 100 µM&item= `CC1(C)C(/C=C/C=C/C=C/C=C2\N(CCCCS(=O)(=O)[O-])c3ccc4ccccc4c3C2(C)C)=[N+](CCCCS(=O)(=O)[O-])c2ccc3ccccc3c21.[Na+]`
Ans: 15

----------
test: AUC 0 to t in Sprague-Dawley rat at 100 uM, iv measured up to 24 hrs by IVIS spectrum imaging analysis; format: ADME, organism-based; design: time < 24 hrs, dose 100 µM, route iv; conditions: in vivo
READOUT NAME: AUC(0-t) at 24 h, 100 µM (µM·h)
State the answer as a number, implicitly in µM·h.

Q: GET /values?readout=AUC(0-t) at 24 h, 100 µM&item= `CC1(C)C(/C=C/C=C/C=C/C=C2\N(CCCCS(=O)(=O)[O-])c3ccc4ccccc4c3C2(C)C)=[N+](CCCCS(=O)(=O)[O-])c2ccc3ccccc3c21.[Na+]`
Ans: 0.0175

----------
assay: Half life in Sprague-Dawley rat at 100 uM, iv measured up to 24 hrs by IVIS spectrum imaging analysis; type: ADME, organism-based; details: in vivo
READOUT NAME: half-life at 100 µM
Reply with the number, then its unit.

Q: GET /values?readout=half-life at 100 µM&item= `CC1(C)C(/C=C/C=C/C=C/C=C2\N(CCCCS(=O)(=O)[O-])c3ccc4ccccc4c3C2(C)C)=[N+](CCCCS(=O)(=O)[O-])c2ccc3ccccc3c21.[Na+]`
Ans: 24 min

Entry source: ChEMBL document CHEMBL5131392
